- SYSTEM NAME: human CD71 on cells (SKBR3; SW620-rLuc-KRAS) (human, UniProt P02786 1-760)
- Sequence (P02786 whole entry): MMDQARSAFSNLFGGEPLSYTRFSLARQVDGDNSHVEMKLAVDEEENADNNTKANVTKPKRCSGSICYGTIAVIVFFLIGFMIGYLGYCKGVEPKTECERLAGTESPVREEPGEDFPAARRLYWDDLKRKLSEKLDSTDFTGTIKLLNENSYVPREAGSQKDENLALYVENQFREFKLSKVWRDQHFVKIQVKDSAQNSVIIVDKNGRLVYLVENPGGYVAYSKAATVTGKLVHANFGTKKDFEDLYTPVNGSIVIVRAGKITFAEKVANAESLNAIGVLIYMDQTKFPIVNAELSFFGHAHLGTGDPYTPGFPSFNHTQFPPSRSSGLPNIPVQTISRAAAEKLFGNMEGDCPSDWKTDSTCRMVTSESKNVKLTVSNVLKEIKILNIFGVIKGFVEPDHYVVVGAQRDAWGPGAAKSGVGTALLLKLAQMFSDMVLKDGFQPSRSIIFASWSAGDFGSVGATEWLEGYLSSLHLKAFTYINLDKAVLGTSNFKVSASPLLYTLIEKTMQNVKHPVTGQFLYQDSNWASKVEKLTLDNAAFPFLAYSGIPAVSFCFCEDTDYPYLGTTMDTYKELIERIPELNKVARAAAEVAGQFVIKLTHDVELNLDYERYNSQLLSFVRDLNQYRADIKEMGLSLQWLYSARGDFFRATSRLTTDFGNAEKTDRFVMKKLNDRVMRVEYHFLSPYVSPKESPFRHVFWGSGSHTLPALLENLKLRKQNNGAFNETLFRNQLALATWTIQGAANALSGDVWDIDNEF
- EXPERIMENT NOTES: cell-based or functional assay
// values below are reported CTG EC50 (CellTiter-Glo luminescent assay, SKBR3 cells, 72 h)
# value in pM; strip the unit string

CD71-binding FN3 domain of SEQ ID NO: 331 (designed binder) MSLPAPKNLVVSRVTEDSARLSWTAPDAAFDSFFIGYLEPQPPGEAIHLYVPGSERSYDLTGLKPGTEYNVTIQGVKVGFPSEPLIANFTT :: 50

Quick note, CTG EC50 (CellTiter-Glo luminescent assay, SKBR3 cells, 72 h) for CD71-binding FN3 domain of SEQ ID NO: 333 (designed binder) MSLPAPENLVVSRVTEDSARLSWTAPDAAFDSFFIGYLEPQPPGEAIALYVPGSERSYDLTGLKPGTEYNVTIQGVKGGFPSLPLVATFTT landed at 570

Quick note, CTG EC50 (CellTiter-Glo luminescent assay, SKBR3 cells, 72 h) for CD71-binding FN3 domain of SEQ ID NO: 234 (designed binder) MSLPAPKNLVVSRVTEDSARLSWTAPDAAFDSFFIGYLEPQPPGEAIALYVPGSERSYDLTGLKPGTEYNVTIQGVKGGFPSEPLVAHFTT landed at 70

Quick note, CTG EC50 (CellTiter-Glo luminescent assay, SKBR3 cells, 72 h) for CD71-binding FN3 domain of SEQ ID NO: 972 (designed binder) MSLPAPKNLVVSRVTEDSARLSWTAPDAAFDSFFIGYLEPQPPGEAIALYVPGSERSYDLTGLKPGTEYNVTIQGAKGGFPSEPLVVHFTT landed at 40

Quick note, CTG EC50 (CellTiter-Glo luminescent assay, SKBR3 cells, 72 h) for CD71-binding FN3 domain of SEQ ID NO: 343 (designed binder) MSLPAPKNLVVSRVTEDSARLSWTAPDAAFDSFFIGYLEPQPPGEAIALWVPGSERSYDLTGLKPGTEYNVTIQGVKGGFPSEPLVATFTT landed at 210

Quick note, CTG EC50 (CellTiter-Glo luminescent assay, SKBR3 cells, 72 h) for CD71-binding FN3 domain of SEQ ID NO: 290 (designed binder) MSLPAPKNLVVSRVTEDSARLSWTAPDAAFDSFFIGYLEPQPPGEAIHLYVPGSERSYDLTGLKPGTEYNVTIQGVKGGFPSEPLVATFTT landed at 10

Quick note, CTG EC50 (CellTiter-Glo luminescent assay, SKBR3 cells, 72 h) for CD71-binding FN3 domain of SEQ ID NO: 264 (designed binder) MSLPAPKNLVVSRVTEDSARLSWTAPDAAFDSFFIGYLEPQPPGEAIALYVPGSERSYDLTGLKPGTEYNVTIQGVKGGFPSEPLVVHFTT landed at 160

Quick note, CTG EC50 (CellTiter-Glo luminescent assay, SKBR3 cells, 72 h) for CD71-binding FN3 domain of SEQ ID NO: 335 (designed binder) MSLPAPKNLVVSRVTEDSARLSWTAPDAAFDSFFIGYLEPQPPGEAIDLYVPGSERSYDLTGLKPGTEYNVTIQGVKGGFPSLPLVATFTT landed at 40

Quick note, CTG EC50 (CellTiter-Glo luminescent assay, SKBR3 cells, 72 h) for CD71-binding FN3 domain of SEQ ID NO: 973 (designed binder) MSLPAPKNLVVSRVTEDSARLSWTAPDAAFDSFFIGYLEPQPPGEAIHLYVPGSERSYDLTGLKPGTEYNGTIQGVKVGFPSEPLIANFTT landed at 70
